Let's look at some molecules and their measured AUC(0-inf).
assay: Pharmacokinetics of deuterated and non-deuterated D-serine, PO 10 mg/kg (Example 5); type: in vivo, male Sprague Dawley rats; conditions: male, Sprague Dawley, rat, plasma, 0.5% Methylcellulose
Could you give me the number in ng·h/mL? Just the number is fine.

# Smiles, AUC(0-inf) [ng·h/mL]
data = [
    ("N[C@H](CO)C(=O)O", 13200),
]

# ---- query molecule ----
Ask | Consider the molecule shown here: [2H][C@@](N)(CO)C(=O)O What is its recorded AUC(0-inf)?
Reply | 21500

----------
assay: Pharmacokinetics dose response of non-deuterated D-serine, 30-300 mg/kg PO (Example 4); type: in vivo, male Sprague-Dawley rats; details: male, Sprague-Dawley, rat, plasma, po, 100 mg/kg, 100 mg/kg PO, (CV %), read-out: Cmax
Property name: Cmax (µg/mL)
Could you give me the number in µg/mL? Just the number is fine.

Ask | Consider the compound shown here: N[C@H](CO)C(=O)O What is its recorded Cmax?
Reply | 96.1
